Entries and their growth values follow.
System: HCC-2998 colon
PROCEDURE_TEXT: NCI-60 one-dose screen, 48 h (100 = growth as untreated, 0 = no growth, -100 = all killed)
MEASUREMENT_PARAMETERS: 10 µM unless noted
Procedure: Growth inhibition of the HCC-2998 human tumor cell line is measured as a screen for anti-cancer activity. Cells are grown in 96 well plates and exposed to the test compound for 48 hours. Compounds are tested at a single concentration, which is 10^-5 M for most compounds. The reported endpoint is percent growth (GI% or GIPRCNT), where numbers from 0 - 100% represent growth inhibition, and numbers from -100% - 0 represent cell death. For example, a value of 40 represents 60% growth inhibition. […]
About 83,000 compounds went through this panel and 20% of them were active in at least one assay; those are over-represented in the sample as a whole.
Number only, in %; omit the unit.

Worked examples follow.
Prompt: Query: growth; subject: C=C(CNCCc1ccc(O)cc1)[C@@H]1CC[C@]2(COC3CCCCO3)CC[C@]3(C)[C@H](CC[C@@H]4[C@@]5(C)CCC(NCCO)C(C)(C)[C@@H]5CC[C@]43C)[C@@H]12 (some centres undefined)
Completion: -89.5

Prompt: Query: growth; subject: COc1cc2oc3cc(C)oc(=O)c3c2cc1OC
Completion: 92.4

---
Prompt: Query: growth; subject: COc1ccc(OC)c(/C=C2\COc3ccc(O)cc3C2=O)c1
Completion: 112

Prompt: Query: growth; subject: CCC(=O)OC1=C(C)SC2=NC(c3ccc(Cl)c(Cl)c3)=CC(c3cc(OC)c(OC)c(OC)c3)N21 (centres undefined)
Completion: 110

Prompt: Query: growth; subject: COc1ccc(CN2C(=O)/C(=C\c3cc(OC)c(OC)c(OC)c3)c3ccccc32)cc1
Completion: 16.9

Prompt: Query: growth; subject: Cc1cc(N(CCCNc2ccnc3cc(Cl)ccc23)Cc2ccccn2)nc(N2CCCC2)n1
Completion: 89.2
